assayProcedure: Wnt pathway potentiators raising nuclear beta-catenin – imaging, WNT3A-conditioned medium, mouse C2C12, NPC library, primary screen (AID 1117326)
settings: at 10 µM, stronger effect = higher value
Measured nuclear beta-catenin stimulation accompanies every entry in the list below.
Please respond with the number in % and leave the unit unwritten.

molecule | reportedProperty | unitLabel | measured
C=CCSCC1Nc2cc(Cl)c(S(N)(=O)=O)cc2S(=O)(=O)N1 (centres undefined) | nuclear beta-catenin stimulation | % | 0.3
CCCCCCCCCCCCCCCCC(C(=O)O)C(O)(CC(=O)O)C(=O)O (centres undefined) | nuclear beta-catenin stimulation | % | -0.9
CCCCCCCCCCCCCCCCOP(=O)([O-])OCC[N+](C)(C)C | nuclear beta-catenin stimulation | % | -0.6
CCN(CC)CCNC(=O)COc1ccc(OC)cc1 | nuclear beta-catenin stimulation | % | 0.5
Cc1cc(-c2ccccc2)nnc1NCCN1CCOCC1 | nuclear beta-catenin stimulation | % | 1.4
O=C(O)CCCCC1CCSS1 (centres undefined) | nuclear beta-catenin stimulation | % | 0
Oc1ccc(C2CNCCc3c2cc(O)c(O)c3Cl)cc1 (centres undefined) | nuclear beta-catenin stimulation | % | 1.1
CCCCCC(C)N (centres undefined) | nuclear beta-catenin stimulation | % | 1.8

We now examine a further molecule.
(Q) Answer with reported nuclear beta-catenin stimulation of Cc1cc(N)c2ccccc2[n+]1CCCCCCCCCC[n+]1c(C)cc(N)c2ccccc21
(A) 25

====

assayProcedure: P. berghei load reduction in hepatocytes – cell-based, HepG2, luciferase luminescence, HepG2 viability, primary screen (AID 624349);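 also: 100% = mean of DMSO negative control wells on the same plate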
settings: P. berghei liver stage in HepG2, luciferase luminescence, concentration not given here; stronger effect = lower value
reportedProperty: parasite load remaining (%)
Please respond with the number in % and leave the unit unwritten.

compound | unitLabel | parasite load remaining
O=C1CC2(CCCC2)CC(=O)N1CCNCC1COc2ccccc2O1 (stereo not given) | % | 46.8
Oc1ccc(Cl)cc1Cc1cc(Cl)ccc1O | % | 11.8

(Q) Answer with reported parasite load remaining of Cc1cc(C(C)(C)C)c(O)c(C(C)(C)C)c1
(A) 72.6

(Q) Answer with reported parasite load remaining of OCc1cccnc1
(A) 56.9

====

targetSystem: Mitogen-activated protein kinase 7 (Homo sapiens) (UniProt Q13164)
Sequence (Q13164 whole entry, looked up, the tested form may be a part): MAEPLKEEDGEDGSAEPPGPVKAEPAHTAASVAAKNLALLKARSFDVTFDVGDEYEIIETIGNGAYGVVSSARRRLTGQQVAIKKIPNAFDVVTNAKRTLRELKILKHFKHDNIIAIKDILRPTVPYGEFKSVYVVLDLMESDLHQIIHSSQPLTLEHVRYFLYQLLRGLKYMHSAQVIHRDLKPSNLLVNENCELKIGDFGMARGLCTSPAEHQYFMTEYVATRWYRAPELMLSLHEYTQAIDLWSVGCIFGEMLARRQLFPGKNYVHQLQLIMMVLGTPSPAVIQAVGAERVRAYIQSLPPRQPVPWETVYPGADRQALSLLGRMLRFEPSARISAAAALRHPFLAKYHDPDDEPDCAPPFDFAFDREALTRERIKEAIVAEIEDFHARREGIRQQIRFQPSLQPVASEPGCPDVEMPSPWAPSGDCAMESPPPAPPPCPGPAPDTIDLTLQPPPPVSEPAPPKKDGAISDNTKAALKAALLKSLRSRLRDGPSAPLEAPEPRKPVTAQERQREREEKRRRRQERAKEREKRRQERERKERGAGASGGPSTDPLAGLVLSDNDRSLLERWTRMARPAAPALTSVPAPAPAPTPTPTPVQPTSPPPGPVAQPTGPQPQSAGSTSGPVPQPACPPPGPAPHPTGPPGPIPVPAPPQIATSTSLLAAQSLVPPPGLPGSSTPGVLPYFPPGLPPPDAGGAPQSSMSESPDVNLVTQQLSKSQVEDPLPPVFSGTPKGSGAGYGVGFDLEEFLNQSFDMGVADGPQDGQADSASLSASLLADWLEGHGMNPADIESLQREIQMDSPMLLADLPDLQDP
assayProcedure: Gal4-ERK5 driven luciferase induction – cell-based, HTS, primary screen (AID 1508626);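 also: luciferase driven by Gal4-ERK5 fusion binding five Gal4 sites before minimal TATA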
settings: HeLa Gal4-ERK5 transactivation, 18 h, at 5 µM, stronger effect = higher value
Activity calls are given as the source filed them.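 Rule for the calls: active = luciferase signal above three times the same-plate solvent-only control wells; inactive = the rest.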
reportedProperty: luciferase signal

compound | measured
Cn1c(=O)c2c(ncn2CC(O)CO)n(C)c1=O (stereo unspecified) | 20 AU (inactive)
CC(C(=O)O)c1ccc(C(=O)c2cccs2)cc1 (stereo unspecified) | 92 AU (inactive)

(Q) Param request: luciferase signal | system Mitogen-activated protein kinase 7 (Homo sapiens) (UniProt Q13164) | item CO/N=C1\CN(c2nc3c(cc2F)c(=O)c(C(=O)O)cn3C2CC2)CC1CN (stereo unspecified)
(A) 40 AU (inactive)

(Q) Param request: luciferase signal | system Mitogen-activated protein kinase 7 (Homo sapiens) (UniProt Q13164) | item Cc1c(NC(=O)c2cccnc2)c(=O)n(-c2ccccc2)n1C
(A) 56 AU (inactive)

(Q) Param request: luciferase signal | system Mitogen-activated protein kinase 7 (Homo sapiens) (UniProt Q13164) | item CC(=O)Oc1cccc(O)c1
(A) 20 AU (inactive)

(Q) Param request: luciferase signal | system Mitogen-activated protein kinase 7 (Homo sapiens) (UniProt Q13164) | item CN(C)CCOC(=O)COc1ccc(Cl)cc1
(A) 64 AU (inactive)

Reference for the values: PubChem BioAssay
